Molecular target: T1, human IgE (human, UniProt P01854 1-428)
T1 construct: written under the same molecule; also called IgE (Abcam ab65866); soluble IgE
T1 sequence (P01854 other isoform, or with tags, fused parts or gaps limits assumed, form in doubt): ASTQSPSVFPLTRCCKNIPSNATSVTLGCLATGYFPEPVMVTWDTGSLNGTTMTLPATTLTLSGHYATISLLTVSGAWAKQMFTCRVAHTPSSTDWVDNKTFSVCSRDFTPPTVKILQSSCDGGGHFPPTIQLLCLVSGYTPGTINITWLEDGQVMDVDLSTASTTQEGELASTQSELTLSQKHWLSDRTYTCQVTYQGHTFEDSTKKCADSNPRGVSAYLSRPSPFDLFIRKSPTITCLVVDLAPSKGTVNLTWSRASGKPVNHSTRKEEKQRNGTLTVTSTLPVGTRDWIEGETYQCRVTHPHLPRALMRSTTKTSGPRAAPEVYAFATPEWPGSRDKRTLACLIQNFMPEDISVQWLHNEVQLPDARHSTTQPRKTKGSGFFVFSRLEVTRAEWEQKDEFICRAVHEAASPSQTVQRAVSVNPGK
Experiment: ELISA, clone lysate on IgE-coated plate
Excerpt: Each amino acid in CDR1 (SEQ ID NO:3), CDR2 (SEQ ID NO:68), and CDR3 (SEQ ID NO:74) was randomly replaced such that the 20 natural amino acids would likely all have been sampled at every position. […] The heat maps represent the relative binding for each clone determined by the range of OD values from the ELISA background to WT CDR binding (FIGS. 16A-16C). […]
Catalogue of Confirm OD450 Duplicate1 readings, one per entry.
No unit in the answer, please; the number alone is enough.

{"columns": ["Binder", "Confirm OD450 Duplicate1"],
 "data": [
  ["2-2C3 (VHH, also called hzB10v40 VHH, CDR1 site 2 L to V) VHH: EVQLLESGGGEVQPGGSLRLSCVASGVTFSSYNMGWLRQAPGKEREFVGLSGSSSTSTYYAESVKGRFTISRDNAKNTVYLQMTSLRAEDTAVYYCAARRLLSTYWSDRSWDFWGQGTLVTVEP", 0.621]
]}

# input Name the recorded Confirm OD450 Duplicate1 of the item 6H1 (VHH, also called hzB10v40 VHH, CDR1 site 6 S to P) VHH: EVQLLESGGGEVQPGGSLRLSCVASGLTFSPYNMGWLRQAPGKEREFVGLSGSSSTSTYYAESVKGRFTISRDNAKNTVYLQMTSLRAEDTAVYYCAARRLLSTYWSDRSWDFWGQGTLVTVEP in your answer.
# output 0.487

# input Name the recorded Confirm OD450 Duplicate1 of the item 2-1F11 (VHH, also called hzB10v40 VHH, CDR1 site 2 L to I) VHH: EVQLLESGGGEVQPGGSLRLSCVASGITFSSYNMGWLRQAPGKEREFVGLSGSSSTSTYYAESVKGRFTISRDNAKNTVYLQMTSLRAEDTAVYYCAARRLLSTYWSDRSWDFWGQGTLVTVEP in your answer.
# output 0.647

# input Name the recorded Confirm OD450 Duplicate1 of the item 9B1 (VHH, also called hzB10v40 VHH, CDR1 site 9 M to V) VHH: EVQLLESGGGEVQPGGSLRLSCVASGLTFSSYNVGWLRQAPGKEREFVGLSGSSSTSTYYAESVKGRFTISRDNAKNTVYLQMTSLRAEDTAVYYCAARRLLSTYWSDRSWDFWGQGTLVTVEP in your answer.
# output 0.452

# input Name the recorded Confirm OD450 Duplicate1 of the item 5H11 (VHH, also called hzB10v40 VHH, CDR1 site 5 S to R) VHH: EVQLLESGGGEVQPGGSLRLSCVASGLTFRSYNMGWLRQAPGKEREFVGLSGSSSTSTYYAESVKGRFTISRDNAKNTVYLQMTSLRAEDTAVYYCAARRLLSTYWSDRSWDFWGQGTLVTVEP in your answer.
# output 0.545

# input Name the recorded Confirm OD450 Duplicate1 of the item 5A1 (VHH, also called hzB10v40 VHH, CDR1 site 5 S to K) VHH: EVQLLESGGGEVQPGGSLRLSCVASGLTFKSYNMGWLRQAPGKEREFVGLSGSSSTSTYYAESVKGRFTISRDNAKNTVYLQMTSLRAEDTAVYYCAARRLLSTYWSDRSWDFWGQGTLVTVEP in your answer.
# output 0.609

# input Name the recorded Confirm OD450 Duplicate1 of the item 33-2A2 (VHH) VHH: EVQLLESGGGEVQPGGSLRLSCVASGLTFSSYNMGWLRQAPGKEREFVGLSGSSSTSTYYAESVKGRFTISRDNAKNTVYLQMTSLRAEDTAVYYCAARRLKSTYWSDRSWDFWGQGTLVTVEP in your answer.
# output 0.557

# input Name the recorded Confirm OD450 Duplicate1 of the item 9E8 (VHH, also called hzB10v40 VHH, CDR1 site 9 M to L) VHH: EVQLLESGGGEVQPGGSLRLSCVASGLTFSSYNLGWLRQAPGKEREFVGLSGSSSTSTYYAESVKGRFTISRDNAKNTVYLQMTSLRAEDTAVYYCAARRLLSTYWSDRSWDFWGQGTLVTVEP in your answer.
# output 0.522

Value source: patent US20250163186A1
